Source listed as patent US10538497B2.

biological target: IDO1 (Homo sapiens (Human)); assay: IDO1 Enzyme Assay; details: read-out: IDO1 Enzyme Assay, IC50; HIS-tagged recombinant IDO1, 40 nM
Give pIC50 for every item shown.
Numbers only, as −log10 of the molar value.

1) O/N=C(\Nc1ccc(F)c(Br)c1)c1nonc1SC1CCNC1 (centres unmarked) :: 7.55
2) O=C1NCC(CSc2nonc2/C(=N/O)Nc2ccc(F)c(Br)c2)O1 (centres unmarked) :: 7.46
3) CC(=O)NCCSc1nonc1/C(=N/O)Nc1ccc(F)c(Br)c1 :: 7.56
4) O=C(CSc1nonc1/C(=N/O)Nc1ccc(F)c(Br)c1)Nc1ccccc1 :: 7.03

# next compound below
Incoming: Please give the measured pIC50 for this compound: `O=C(NCCSc1nonc1C(=NO)Nc1ccc(F)c(Br)c1)NC1CCCC1`
Outgoing: 7.45

###

Please respond with reported IC50 for every item in the list.
molecular target: IDO1 (Homo sapiens (Human), UniProt P14902); assay: IDO1 Enzyme Assay; conditions: read-out: IDO1 Enzyme Assay, IC50; HIS-tagged recombinant IDO1, 40 nM
Sequence (P14902 whole entry): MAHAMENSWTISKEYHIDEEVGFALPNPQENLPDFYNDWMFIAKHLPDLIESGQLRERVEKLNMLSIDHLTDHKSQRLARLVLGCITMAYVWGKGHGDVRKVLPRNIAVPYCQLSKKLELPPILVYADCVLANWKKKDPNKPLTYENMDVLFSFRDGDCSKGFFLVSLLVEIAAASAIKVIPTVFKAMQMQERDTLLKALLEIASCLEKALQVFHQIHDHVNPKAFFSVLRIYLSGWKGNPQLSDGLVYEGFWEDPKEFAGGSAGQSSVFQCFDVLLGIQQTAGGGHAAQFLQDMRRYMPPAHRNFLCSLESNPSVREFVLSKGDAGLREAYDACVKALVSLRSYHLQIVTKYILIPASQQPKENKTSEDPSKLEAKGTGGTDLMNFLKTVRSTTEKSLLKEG
Answers are plain numbers, in nM.

1) O/N=C(\Nc1ccc(F)c(Br)c1)c1nonc1SC1CNC1 :: 74.8
2) O=C(NCCSc1nonc1C(=NO)Nc1ccc(F)c(Br)c1)NCC1CCOCC1 :: 37
3) NC(=O)CCSc1nonc1/C(=N/O)Nc1ccc(F)c(Br)c1 :: 36.9
4) O=C(CSc1nonc1/C(=N/O)Nc1ccc(F)c(Br)c1)NC1(CO)CC1 :: 20.2

Incoming: Give the reported IC50 for `O=C(NCCSc1nonc1/C(=N/O)Nc1ccc(F)c(Br)c1)C(F)(F)F` (system: IDO1 (Homo sapiens (Human), UniProt P14902)).
Outgoing: 61.6

###

molecular target: UniProt:P14902; test: IDO1 Enzyme Assay; details: read-out: IDO1 Enzyme Assay, IC50; HIS-tagged recombinant IDO1, 40 nM
pIC50: −log10 of the molar value.
Label condition met when pIC50 is at or above 7; otherwise label condition not met.

1. CC(C)Nc1c(NCCSc2nonc2/C(=N/O)Nc2ccc(F)c(Br)c2)c(=O)c1=O :: condition met
2. N#CCSc1nonc1/C(=N/O)Nc1ccc(F)c(Br)c1 :: condition met
3. CNC(=O)CSc1nonc1/C(=N/O)Nc1ccc(F)c(Br)c1 :: condition met
4. COCCNC(=O)CCSc1nonc1/C(=N/O)Nc1ccc(F)c(Br)c1 :: condition met

Incoming: pIC50 >= 7 for `CC(=O)NCCSc1nonc1/C(=N/O)Nc1ccc(F)cc1` ?
Outgoing: condition not met

Incoming: Is it the case that `CC(=O)NCCOc1nonc1/C(=N/O)Nc1ccc(F)c(Br)c1` has pIC50 reaching or exceeding 7?
Outgoing: condition met

Incoming: Is reported pIC50 greater than or equal to 7 here: `O=P(CCSc1nonc1/C(=N/O)Nc1ccc(F)c(Br)c1)(Oc1ccccc1)Oc1ccccc1`
Outgoing: condition not met

###

Can you tell me pIC50 for the items I'm about to list?
target: IDO1 (Homo sapiens (Human)); assay: IDO1 Cellular Assay in Hela Cells Stimulated with IFNγ; assay type: cell-based; conditions: Hela cells stimulated with IFNγ 100 ng/mL; read-out: IDO1 HELA Cell Assay, IC50
Numbers only, as −log10 of the molar value.

In the examples that follow, each entry is paired with its recorded pIC50.
1. CC(C)(CO)NC(=O)CSc1nonc1/C(=N/O)Nc1ccc(F)c(Br)c1 :: 7.75
2. CC(C)OC(=O)OCOP(=O)(CCSc1nonc1/C(=N/O)Nc1ccc(F)c(Br)c1)OCOC(=O)OC(C)C :: 5.38
3. O=C(CSc1nonc1/C(=N/O)Nc1ccc(F)c(Br)c1)Nc1ccccc1 :: 7.11
4. O=C1CC[C@@H](CSc2nonc2/C(=N/O)Nc2ccc(F)c(Br)c2)N1 :: 7.57
5. CCCSc1nonc1/C(=N/O)Nc1ccc(F)c(Br)c1 :: 6.81
6. O=c1c(NCCSc2nonc2/C(=N/O)Nc2ccc(F)c(Br)c2)c(N2CCOCC2)c1=O :: 6.45
7. CN1C[C@H](CSc2nonc2/C(=N/O)Nc2ccc(F)c(Br)c2)NC1=O :: 7.12
8. N#Cc1cc(N/C(=N\O)c2nonc2SCCNC(=O)[C@@H]2CC2(F)F)ccc1F :: 6.76

For each entry beneath this line, provide reported pIC50.
1. N#Cc1cc(N/C(=N\O)c2nonc2SCCNS(=O)(=O)C2CC2)ccc1F
2. CS(=O)(=O)NCCSc1nonc1/C(=N/O)Nc1ccc(F)c(C(F)F)c1
3. Cn1ccnc1CSc1nonc1C(=NO)Nc1ccc(F)c(Br)c1
4. O=C(CSc1nonc1/C(=N/O)Nc1ccc(F)c(Br)c1)N1CCOCC1
5. NS(=O)(=O)N[C@H](CO)CSc1nonc1/C(=N/O)Nc1ccc(F)c(Br)c1
6. OCC(O)CSc1nonc1/C(=N/O)Nc1ccc(F)c(Br)c1 (centres unmarked) [Example 17]
7. O=C(CCSc1nonc1/C(=N/O)Nc1ccc(F)c(Br)c1)NCCO

Outgoing:
[7.24, 7.24, 7.16, 6.84, 7.33, 7.40, 7.32]

State the recorded pIC50 for every item in the following list.
1. Nc1c(NCCSc2nonc2/C(=N/O)Nc2ccc(F)c(Br)c2)c(=O)c1=O
2. COC(=O)CNP(=O)(CCSc1nonc1/C(=N/O)Nc1ccc(F)c(Br)c1)NCC(=O)OC
3. O=S1(=O)NC[C@H](CSc2nonc2/C(=N/O)Nc2ccc(F)c(Br)c2)N1
4. CC(C)(NC(=O)CSc1nonc1/C(=N/O)Nc1ccc(F)c(Br)c1)C(O)CO (centres unmarked)
5. CC(=O)NCCSc1nonc1/C(=N/O)Nc1ccc(F)c(C(F)F)c1
6. CC(C)(O)C(O)CSc1nonc1/C(=N/O)Nc1ccc(F)c(Br)c1 (centres unmarked) [Example 29]

Outgoing:
1. 6.97
2. 8.07
3. 7.58
4. 7.43
5. 7.24
6. 7.21

Record pIC50 per entry; entries follow.
1. CC(C)(O)C(O)CSc1nonc1/C(=N/O)Nc1ccc(F)c(Br)c1 (centres unmarked) [Example 30]
2. O=C(NCCSc1nonc1/C(=N/O)Nc1ccc(F)c(Br)c1)C(F)(F)F
3. Cc1nc(CSc2nonc2C(=NO)Nc2ccc(F)c(Br)c2)no1
4. CC(C)(O)[C@@H](O)CSc1nonc1C(=NO)Nc1ccc(F)c(C#N)c1
5. OC[C@H](O)CSc1nonc1/C(=N/O)Nc1ccc(F)c(Cl)c1
6. Cn1c(CSc2nonc2/C(=N/O)Nc2ccc(F)c(Cl)c2)n[nH]c1=O

Outgoing:
1: 7.07; 2: 7.62; 3: 6.52; 4: 6.93; 5: 6.96; 6: 6.63
